Biological target: human proteinase 3 (Homo sapiens)
Construct: purchased Elastin Products Company, USA
Sequence (P24158 28-248): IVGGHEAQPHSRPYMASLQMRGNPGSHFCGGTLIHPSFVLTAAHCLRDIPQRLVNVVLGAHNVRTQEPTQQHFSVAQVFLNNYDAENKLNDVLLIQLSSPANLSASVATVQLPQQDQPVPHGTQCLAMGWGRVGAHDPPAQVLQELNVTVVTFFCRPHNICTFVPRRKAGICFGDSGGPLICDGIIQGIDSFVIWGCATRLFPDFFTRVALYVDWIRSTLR
Assay: Inhibition of human proteinase 3 (substrate Boc-Ala-Ala-Nva-SBzl)
Format: biochemical
Conditions: ratio of hPr3 IC50 to hNE IC50
Procedure: 2.4 Inhibition of Human Proteinase 3 The inactivation of human proteinase 3 (Elastin Products Company, USA) by the peptides of the invention using synthetic tripeptidic substrate Boc-Ala-Ala-Nva-SBzl (Elastin Products Company, USA) was determined as follows: The above substrate (1 mM), 4,4′-dithiodipyridine (250 μM) and human proteinase 3 (10 nM) were incubated at 37° C. with serial dilutions of the peptides (0.5% DMSO final) in assay buffer (50 mM Tris, pH7.4, 150 mM NaCl, 0.01% Tween20). […]
Where a SMILES comes first, the peptide text is derived from it. [ ]: non-standard residue; d: D form. Gly(octyl) = CCCCCCCC[C@H](N)C(=O)O; β3hP = O=C(O)C[C@@H]1CCCN1
OBSERVABLE: hNE/hPr3 selectivity
Numbers only.

These recorded examples may help you get a feel for the data.
COMPOUND	REPORTED MEASUREMENT
CCCCCCCC[C@@H]1NC(=O)C[C@@H]2CCCN2C(=O)[C@H]2CCCN2C(=O)[C@H]([C@@H](C)O)NC(=O)[C@H](CCCCN)NC(=O)[C@H](CCC(N)=O)NC(=O)[C@@H]2CCCN2C(=O)[C@@H]2CCCN2C(=O)[C@H]([C@@H](C)CC)NC(=O)[C@H](CO)NC(=O)[C@H](C)NC(=O)[C@H]([C@@H](C)O)NC(=O)[C@H](CCC(=O)O)NC1=O [Example 39] (cyclo([Gly(octyl)]ETASIPPQKT[dP][β3hP]))	24655
CCCCCCCC[C@@H]1NC(=O)[C@H](C(C)C)NC(=O)[C@@H](Cc2ccc(O)cc2)NC(=O)[C@H]([C@@H](C)O)NC(=O)[C@H](CCCCN)NC(=O)[C@H](CCC(N)=O)NC(=O)[C@@H]2CCCN2C(=O)[C@@H]2CCCN2C(=O)[C@H]([C@@H](C)CC)NC(=O)[C@H](CO)NC(=O)[C@H](C)NC(=O)[C@H]([C@@H](C)O)NC(=O)[C@H](CCC(=O)O)NC1=O [Example 23] (cyclo([Gly(octyl)]ETASIPPQKT[dY]V))	1717

Exercise: Given CCCCCCCC[C@@H]1NC(=O)[C@H](Cc2ccc(O)cc2)NC(=O)[C@@H](C(C)C)NC(=O)[C@H]([C@@H](C)O)NC(=O)[C@H](CCCCN)NC(=O)[C@H](CCC(N)=O)NC(=O)[C@@H]2CCCN2C(=O)[C@@H]2CCCN2C(=O)[C@H]([C@@H](C)CC)NC(=O)[C@H](CO)NC(=O)[C@H](C)NC(=O)[C@H]([C@@H](C)O)NC(=O)[C@H](CCC(=O)O)NC1=O [Example 21] (cyclo([Gly(octyl)]ETASIPPQKT[dV]Y)) , state its recorded hNE/hPr3 selectivity.
Solution: 1008
